The reported numbers originate from patent US11613531B2.

# system: Recombinant ROCK2 (amino acids 1-552) (Homo sapiens (Human))
# Sequence (O75116 1-552): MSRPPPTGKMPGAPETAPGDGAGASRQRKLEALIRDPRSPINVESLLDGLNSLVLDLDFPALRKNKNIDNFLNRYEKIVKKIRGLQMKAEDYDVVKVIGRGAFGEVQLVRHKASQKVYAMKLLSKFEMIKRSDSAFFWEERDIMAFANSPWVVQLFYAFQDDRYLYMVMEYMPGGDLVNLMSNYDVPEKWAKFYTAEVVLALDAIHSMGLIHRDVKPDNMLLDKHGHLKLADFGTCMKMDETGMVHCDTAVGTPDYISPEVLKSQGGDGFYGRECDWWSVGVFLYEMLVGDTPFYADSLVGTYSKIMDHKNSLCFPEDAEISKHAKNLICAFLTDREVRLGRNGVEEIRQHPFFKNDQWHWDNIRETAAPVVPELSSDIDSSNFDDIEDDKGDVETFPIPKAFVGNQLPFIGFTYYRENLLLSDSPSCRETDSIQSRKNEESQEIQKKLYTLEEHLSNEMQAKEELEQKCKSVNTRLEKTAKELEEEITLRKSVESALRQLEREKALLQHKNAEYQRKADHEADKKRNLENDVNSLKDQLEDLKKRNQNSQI
# protocol-text: Z′-Lyte kinase assay, ROCK2
# Format: biochemical
# study-conditions: 1 μM compound; read-out: ROCK2 % inh. @ [conc]
# Method: Determination of Compound's ROCK Inhibitory Activity In Vitro (Z'Lyte Assay). Recombinant ROCK1 (amino acids 1-535) and ROCK2 (amino acids 1-552) proteins were purchased from ThermoFisher Scientific. Compound's activities were measured by Z′-lyte kinase kit (ThermoFisher Scientific) and IC50 was calculated In vitro activities for the compounds were measured with Z′-lyte kinase kit (ThermoFisher Scientific). […] In cell pMLC IC50s were calculated with data obtained from A7R5 cell experiments. […]
outcome-measure: inhibition at 1 µM

compound=c1cc(-c2cn[nH]c2)ccc1Nc1nc(N2CCCNCC2)nc2c1CSC2 outcome_measure="inhibition at 1 µM" meas_value=101%
compound=Clc1cnc(N2C3CNCC2C3)nc1Nc1ccc2[nH]ncc2c1 outcome_measure="inhibition at 1 µM" meas_value=102%
compound="CCC1CN(c2ncc(C)c(Nc3ccc4[nH]ncc4c3)n2)CCCN1 (stereo not shown)" outcome_measure="inhibition at 1 µM" meas_value=34.1%
compound="Cc1cc(Nc2ccc3[nH]ncc3c2)nc(N2CCNC(C)CC2)n1 (stereo not shown)" outcome_measure="inhibition at 1 µM" meas_value=81.9%
compound=COc1cnc(N2CCCNCC2)nc1Nc1ccc2[nH]ncc2c1 outcome_measure="inhibition at 1 µM" meas_value=96%
compound=Cc1cc(Nc2ccc3[nH]ncc3c2)nc(N2CC3(CCNCC3)c3ccccc32)n1 outcome_measure="inhibition at 1 µM" meas_value=9.1%

Hi, could you look up inhibition at 1 µM for each item in my list?
1. COc1cnc(N2CCCNC(C(C)C)C2)nc1Nc1ccc2[nH]ncc2c1 (stereo not shown)
2. Cc1cc(Nc2ccc3[nH]ncc3c2)nc(N2CCNCC2C)n1 (stereo not shown)
3. Cc1cc(Nc2ccc3[nH]ncc3c2)nc(N2CCN3CCNCC3C2)n1 (stereo not shown)
4. c1cc(Nc2ccc3[nH]ncc3c2)nc(N2CCNC3(CC3)C2)n1
5. CC1CCN(c2ncc(F)c(Nc3ccc4[nH]ncc4c3)n2)CCN1 (stereo not shown)
6. Cc1cnc(N2CCNC(C)C2)nc1Nc1ccc2[nH]ncc2c1 (stereo not shown)
7. CCC1CN(c2ncc(OC)c(Nc3ccc4[nH]ncc4c3)n2)CCN1 (stereo not shown)
8. Cc1nc(N2CCNC(C)CC2)nc(Nc2ccc3[nH]ncc3c2)c1C (stereo not shown)

Result:
44.6%
91%
15.2%
86.3%
77%
47.9%
50.6%
52.9%

Go through the list and state inhibition at 1 µM for each entry.
1. Cc1cc(Nc2ccc3[nH]ncc3c2)nc(N2CC(C)NC(C)C2)n1 (stereo not shown)
2. CCC1CCN(c2ncc(C)c(Nc3ccc4[nH]ncc4c3)n2)CCN1 (stereo not shown)
3. COc1cnc(N2CCCNC(C)C2)nc1Nc1ccc2[nH]ncc2c1 (stereo not shown)
4. c1cc(Nc2ccc3[nH]ncc3c2)nc(N2CC3CNC(C3)C2)n1 (stereo not shown)

Result:
58.1%
27.2%
83.3%
99.1%

Request: Consider the compound CC1CN(c2ncc(F)c(Nc3ccc4[nH]ncc4c3)n2)CCCN1 (stereo not shown) and give its recorded inhibition at 1 µM.
Result: 87.4%
